# test.method.notes: MTT assay, cytotoxicity against normal HEK293 cells
# Assay type: cell-based, human
# settings: human, HEK293 cells
I'd appreciate it if you marked entries fulfilled when viability at 48 h, 10 μM is lower than 30% and not fulfilled when it is not.

> print(dat)
                                   compound          label
1  CC(C)Cc1ccc(C(C)C(=O)NN=Cc2ccc(OCC(=O)NN=Cc3ccc(O)cc3O)cc2)cc1 (centres unmarked)  not fulfilled
2  CC(C)Cc1ccc(C(C)C(=O)NN=Cc2ccc(OCC(=O)NN=Cc3ccc(Br)cc3F)cc2)cc1 (centres unmarked)  not fulfilled
3  COc1ccc(C=NNC(=O)COc2ccc(C=NNC(=O)C(C)c3ccc(CC(C)C)cc3)cc2)c(O)c1 (centres unmarked)      fulfilled
4  CC(C)Cc1ccc(C(C)C(=O)NN=Cc2ccc(OCC(=O)NN=Cc3cc(Br)c(O)c(Br)c3)cc2)cc1 (centres unmarked)  not fulfilled

Origin of the recorded values: paper PMC10764114
